test: inhibition of 3D7 malaria parasite growth – strain 3D7 (AID 2306);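 also: 0% = DMSO wells and 100% = chloroquine plus artemisinin control wells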; settings: P. falciparum 3D7 erythrocytic growth, LDH absorbance, 72 h; at 2 µM; stronger effect = higher value
Kindly supply the reported growth inhibition values for the records listed here.
One number for each entry, in %.

Below, each entry is followed by its recorded growth inhibition result.
compound	experimental_readout	endpoint_value
NC(N)=Nc1nc(-c2cccc(NC(=O)C(F)(F)F)c2)cs1	growth inhibition	94
O=S(=O)(c1c(Cl)cccc1Cl)N1CCCCC(c2ccc(C(F)(F)F)cc2)=N1	growth inhibition	99
Nc1c(Cl)cc(C(O)CNCCCCCCCCCc2ccccn2)cc1Cl (stereo not given)	growth inhibition	98
O=C(/C=C/c1ccc(Cl)c(Cl)c1)N1CCC(CCN2CCC(c3c[nH]c4cnccc34)CC2)CC1	growth inhibition	101

Here is another compound to look at.
Reported growth inhibition for CO/C(=C\C=C\c1cc2cc(Cl)c(Cl)cc2[nH]1)C(=O)NCCCCN1CCN(c2ccccc2OC)CC1 : what is it?
100

====

assay: antimalarial activity against Dd2 strain (AID 2302);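 also: 0% = DMSO untreated growth and 100% = chloroquine plus artemisinin killed control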; settings: P. falciparum Dd2 in RBCs, LDH growth readout, 72 h; at 2 µM; stronger effect = higher value
Kindly supply the reported growth inhibition values for the records listed here.
Answers are plain numbers, in %.

compound	unit	growth inhibition
Nc1cc(-c2ccc(Br)cc2O)nc2ccccc12	%	50
Cc1ccc(NC(=O)Nc2ccccc2)cc1-c1ccc(C(=O)Nc2ccncc2)cc1	%	52
COc1ccc(NC(=O)/C=C/c2ccc(-c3ccccc3)cc2)cc1N1CCN(C)CC1	%	46

List the reported growth inhibition of each compound below.
1. COc1ccc(-c2cc(C(=O)N[C@@H](Cc3ccccc3)C(=O)NCCN3CCCCC3)ccc2O)cc1
2. O=C(Nc1ccccc1)c1nn(CCCN2CCC(N3CCCC3)CC2)cc1-c1ccc(Cl)c(Cl)c1
3. Cc1ccc(-c2nnc(Nc3ccc(CC(N)=O)cc3)c3ccccc23)cc1S(=O)(=O)NCC1CCCO1 (stereo not drawn)
4. Cc1n[nH]c(C)c1C1CCN(CC2CCC(NC(=O)/C=C/c3ccc(Cl)c(Cl)c3)CC2)CC1 (stereo not drawn)

1. -3
2. 98
3. 64
4. 53

====

assay: antimalarial activity against Dd2 strain (AID 2302);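 also: 0% = DMSO untreated growth and 100% = chloroquine plus artemisinin killed control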; conditions: P. falciparum Dd2 in RBCs, LDH growth readout, 72 h; at 2 µM; stronger effect = higher value
Entries are grouped by growth inhibition into these classes: lower range (below 10%), middle range (10% to below 60%), upper range (60% or more)

Completed entries (count: 5):
compound	class_name
O=C(Nc1cccc(C(F)(F)F)c1)c1cccc(S(=O)(=O)NC2CCN(CC3CCCCC3)C2)c1 (centres undefined)	middle range
CC(=O)Nc1ccc(CN2CCc3ccc(NS(=O)(=O)c4cccc(OCc5ccc(Cl)cc5)c4)cc3CC2)s1	lower range
CN1CC[C@@H](Oc2cc(NC(=O)Nc3ccccc3Br)ccc2Cl)C1	lower range
CN1CCC(Oc2ccc(CN3CC[C@H](NC(=O)c4cccc(C#N)c4)C3)c3ccccc23)C1 (some centres undefined)	middle range
O=[N+]([O-])c1cccc(CNCC2CCN(CC3CCCCC3)CC2)c1	middle range

Hi there! Could you help me figure out the category for CN(C)CCCNc1ccnc2cc(Cl)ccc12 please?
upper range

Hi there! Could you help me figure out the category for COc1cc(-c2nc(-c3ccccc3)c(-c3ccc([N+](=O)[O-])cc3)[nH]2)cc(OC)c1O please?
middle range

Hi there! Could you help me figure out the category for COc1cc(CNC[C@@H](O)[C@H](Cc2ccccc2)NC(=O)c2cc(C3CCCC3)cc(N3CCCCS3(=O)=O)c2)cc(OC)c1 please?
upper range
